Consider the following binders and their measured pKd readings.
- measurementTarget: Botulinum neurotoxin type B, subtype B4 (BoNT/B4) (Clostridium botulinum)
- testMethodNotes: flow cytometry; yeast-displayed scFv, soluble toxin
Note: pKd values are expressed as the negative base-10 logarithm of concentration in M.

The following binders have reported results that may help.
>  <binder>
2B27 scFv (yeast displayed) (scFv) scFv: EVQLQESGPGLVKPSETLSVTCAVSGGSISSSNYSWAWIRQPPGKGLEWIGTMYYSGSTHYHPSLKSRVTISVDTSKSQLSLKLSSVTAADTAVYYCARRRLLGPSPYYFDYWGQGTLVTVSSGGGGSGGGGSGGGGSQSVVTQPPSVSGAPGQRVTISCSGSSSNIGAGYDVHWYQQLPGTAPKLLIYGNNNRPSGVPDRFSGSKSGTSASLAITGLQAEDEADYYCQSYDSSLSAYVFGTGTKLTVLG

>  <observed>
9.11

$$$$
>  <binder>
1B10 scFv (yeast displayed) (scFv) scFv: QVQLVESGGGVVQPGRSLRLSCAASGFTFSHYGMHWVRQSPGKGLEWVAVIWYDGRNPYYAASVKGRFTISRDNDKNTLYLQMNSLRAEDTAVYYCVKDLTRFHDTTFGVFEMWGPGTTVTVSSGGGGSGGGGSGGGGSEIVLTQSPSSLSASVGDRITITCRASQSISSWLAWYQQKPGKAPMVLIYKASSLENGVPSRFSGSGSGTEFTLTISSLQPDDFATYYCQQYSTYSRTFGQGTKVEIKR

>  <observed>
8.33

$$$$

# input for lookup
Query (binder): 2B25 scFv (yeast displayed) (scFv) scFv: QVQLQESGPGLVKPSQTLSLSCSVSGASITSGTFYWSWIRQHPGKDLEWIGYIYYSGTTYYNPSLKSRVTLSVDTSKNQFSLKVTSLTAADTAVYHCARGVPIYDSSGTYRGTYFDYWGQGTLVTVSSGGGGSGGGGSGGGGSQPGLTQPPSASGTPGQRVTISCSGSSSNVGSNTVNWYQQLPGTAPKLLIYRNDQRPSGVPDRFSGSKSGASASLAISGLRSEDEADYYCAAWDDSLNGLLFGGGTQLTVLG ; field requested: pKd
9.17
